Test: total protein half-life in vivo (active degradation + dilution); higher = more stable protein
Settings: E. coli NCM3722 delta-smpB; growth: N-lim chemostat; doubling time 6 h
Provide the recorded total protein half-life in vivo for the entries that follow.
Record the result as a number with its unit.

Ask: Note down total protein half-life in vivo recorded for MKTSVRIGAFEIDDGELHGESPGDRTLTIPCKSDPDLCMQLDAWDAETSIPALLNGEHSVLYRTRYDQQSDAWIMRLA
Reply: 0.479 h

Ask: Give the reported total protein half-life in vivo for this sequence. MKFKTNKLSLNLVLASSLLAASIPAFAVTGDTDQPIHIESDQQSLDMQGNVVTFTGNVIVTQGTIKINADKVVVTRPGGEQGKEVIDGYGKPATFYQMQDNGKPVEGHASQMHYELAKDFVVLTGNAYLQQVDSNIKGDKITYLVKEQKMQAFSDKGKRVTTVLVPSQLQDKNNKGQTPAQKKGN [P0ADV1]
Reply: 6.18 h

Ask: Answer with the recorded total protein half-life in vivo for the sequence listed here: MERLKRMSVFAKVVEFGSFTAAARQLQMSVSSISQTVSKLEDELQVKLLNRSTRSIGLTEAGRIYYQGCRRMLHEVQDVHEQLYAFNNTPIGTLRIGCSSTMAQNVLAGLTAKMLKEYPGLSVNLVTGIPAPDLIADGLDVVIRVGALQDSSLFSRRLGAMPMVVCAAKSYLTQYGIPEKPADLSSHSWLEYSVRPDNEFELIAPEGISTRLIPQGRFVTNDPMTLVRWLTAGAGIAYVPLMWVINEINRGELEILLPRYQSDPRPVYALYTEKDKLPLKVQVVINSLTDYFVEVGKLFQEMHGRGKEK
Reply: 6.03 h

Ask: Answer with the recorded total protein half-life in vivo of MNTLLLLAALSSQITFNTTQQGDVYTIIPEVTLTQSCLCRVQILSLREGSSGQSQTKQEKTLSLPANQPIALTKLSLNISPDDRVKIVVTVSDGQSLHLSQQWPPSSEKS only.
Reply: 3.31 h

====

Record form. Attribute: total protein half-life in vivo. Fill in for each entry.
Assay: total protein half-life in vivo (active degradation + dilution); higher = more stable protein
Conditions: wild type E. coli NCM3722; growth: C-lim chemostat; doubling time 12 h
A number alone suffices; assume h.

Ask: Note total protein half-life in vivo for the sequence shown: MKQHQSADNSQGQLYIVPTPIGNLADITQRALEVLQAVDLIAAEDTRHTGLLLQHFGINARLFALHDHNEQQKAETLLAKLQEGQNIALVSDAGTPLINDPGYHLVRTCREAGIRVVPLPGPCAAITALSAAGLPSDRFCYEGFLPAKSKGRRDALKAIEAEPRTLIFYESTHRLLDSLEDIVAVLGESRYVVLARELTKTWETIHGAPVGELLAWVKEDENRRKGEMVLIVEGHKAQEEDLPADALRTLALLQAELPLKKAAALAAEIHGVKKNALYKYALEQQG
Reply: 11.8

Ask: Provide total protein half-life in vivo value for the following sequence: MSEMIYGIHAVQALLERAPERFQEVFILKGREDKRLLPLIHALESQGVVIQLANRQYLDEKSDGAVHQGIIARVKPGRQYQENDLPDLIASLDQPFLLILDGVTDPHNLGACLRSADAAGVHAVIVPKDRSAQLNATAKKVACGAAESVPLIRVTNLARTMRMLQEENIWIVGTAGEADHTLYQSKMTGRLALVMGAEGEGMRRLTREHCDELISIPMAGSVSSLNVSVATGICLFEAVRQRS
Reply: 10.3
